System: HEK-293T
procedure-summary: Incucyte cell viability with HEK293T; also: unitless GR value; below 1 slowed growth and below 0 cell loss
Type: toxicity, cell-based
conditions: human, 6 h, 10 µM, compound concentration 10 uM, replicate number 2
value-kind: Growth Rate
// print number alone

## Task Recorded Growth Rate for COc1ccc(-c2cc3c(C)nc(N)nc3n([C@H]3CC[C@H](OCCO)CC3)c2=O)cn1 , please?
## Result -0.8

## Task Recorded Growth Rate for CCOCCn1cc(C(=O)Nc2ccc(-n3nc(-c4cccnc4)cc3C(F)(F)F)cn2)ccc1=O , please?
## Result -0.06

## Task Recorded Growth Rate for COc1cc(N(C)c2ccnc3ccc(C(F)(F)F)cc23)cc(OC)c1OC , please?
## Result -0.32

## Task Recorded Growth Rate for COc1ccc(Cl)cc1[C@]1(F)C(=O)Nc2cc(C(F)(F)F)ccc21 , please?
## Result 0.03

## Task Recorded Growth Rate for COc1ccc(OC(=O)N(CC(=O)O)Cc2ccc(OCCc3nc(-c4ccccc4)oc3C)cc2)cc1 , please?
## Result 0.07

## Task Recorded Growth Rate for Cc1cn([C@@H](C)CC#N)c(=O)c2cc(Cn3nc(C(F)F)cc3Cl)nn12 , please?
## Result 0.84

## Task Recorded Growth Rate for CN(C)C/C=C/C(=O)Nc1cccc(S(=O)(=O)N2CCC(NC(=O)c3n[nH]cc3NC(=O)c3c(Cl)cc(Cl)cc3Cl)CC2)c1 , please?
## Result -0.85

## Task Recorded Growth Rate for FC(F)(F)c1ccccc1-c1cc(C(F)(F)F)c2[nH]c(C3=NOC4(CCCCC4)C3)nc2c1 , please?
## Result -0.15

###

Test system: HEK-293T
procedure-summary: Incucyte cell viability with HEK293T; also: unitless GR value; below 1 slowed growth and below 0 cell loss
Format: toxicity, cell-based
conditions: human, 24 h, 10 µM, compound concentration 10 uM, replicate number 1
Flag rule - Growth Rate less than 0.9 flags Yes; the remaining entries get No.

## Task Quick check: Growth Rate of Cc1nc2c(cc1F)c(-c1nnc3c(n1)NC(=O)C3(C)C)nn2Cc1cccc(F)c1F under 0.9?
## Result Yes

## Task Quick check: Growth Rate of Cc1cc(-c2nc(-c3ccc(OC(F)(F)F)cc3)no2)nn1Cc1ccnc(N2CCN(C3CC3)CC2)c1 under 0.9?
## Result Yes

## Task Quick check: Growth Rate of N[C@@H](CC(=O)O)Cn1nnc(-c2ccc(Oc3ncc(Cl)cc3F)cc2)n1 under 0.9?
## Result No

## Task Quick check: Growth Rate of CC(=O)c1c(C)c2cnc(Nc3ccn(C)n3)nc2n(C2CCCC2)c1=O under 0.9?
## Result Yes

## Task Quick check: Growth Rate of C#Cc1cnc2[nH]cc(-c3cccc4c3CCN4C(=O)[C@@H]3CCCN3C#N)c2c1 under 0.9?
## Result Yes

## Task Quick check: Growth Rate of CCC(=O)N[C@@H]1CC[C@H](C(=O)N(C)c2ccc(-c3nc4ccccc4o3)cc2)C1 under 0.9?
## Result Yes

## Task Quick check: Growth Rate of Cc1ccc(NC(=O)c2ccc(CN3CC[C@H](N(C)C)C3)c(C(F)(F)F)c2)cc1Nc1nccc(-c2cncnc2)n1 under 0.9?
## Result No

## Task Quick check: Growth Rate of C=C(C)[C@H]1CN[C@H](C(=O)O)[C@H]1CC(=O)O under 0.9?
## Result Yes

## Task Quick check: Growth Rate of C[C@]12CC[C@@H]3c4ccc(C(N)=O)cc4CC[C@H]3[C@@H]1CC=C2c1cncc(F)c1 under 0.9?
## Result No

## Task Quick check: Growth Rate of COC[C@@H](C)N[C@H]1CC[C@H](Nc2cc(-c3cccc(NCC4(C#N)CCOCC4)n3)c(Cl)cn2)CC1 under 0.9?
## Result Yes

## Task Quick check: Growth Rate of COCCc1ccc(-c2c(C)nc3c(N4CCOCC4)ccnn23)cn1 under 0.9?
## Result Yes

## Task Quick check: Growth Rate of CCOc1ccccc1C(=O)NCC1(N2CCN(CC)CC2)CCCCC1 under 0.9?
## Result Yes

## Task Quick check: Growth Rate of CCc1cnn2c(NCc3ccc[n+]([O-])c3)cc(N3CCCCC3CCO)nc12 (stereo not drawn) under 0.9?
## Result Yes

## Task Quick check: Growth Rate of COc1cccc(-c2c(C)c(Cc3c(F)cccc3C(F)(F)F)c3n(c2=O)[C@@H]([C@@H](N)c2ccccc2)CS3)c1F under 0.9?
## Result Yes

## Task Quick check: Growth Rate of C[C@]12CC[C@@H]3c4ccc(O)cc4CC[C@H]3[C@@H]1C[C@H]1OC(=O)C[C@]12O under 0.9?
## Result Yes

## Task Quick check: Growth Rate of CCc1c(-c2ccc3[nH]ncc3c2)cnc(N)c1-c1ccc(O)cc1 under 0.9?
## Result No
